- experimental system: T1, human CD33 (human, UniProt P20138 18-364)
- T1 construct: CD33 on human primary dendritic cells, macrophages, monocytes and T cells and on CHO cells expressing recombinant human CD33; also called Siglec-3; hCD33
- T1 sequence (P20138 18-364): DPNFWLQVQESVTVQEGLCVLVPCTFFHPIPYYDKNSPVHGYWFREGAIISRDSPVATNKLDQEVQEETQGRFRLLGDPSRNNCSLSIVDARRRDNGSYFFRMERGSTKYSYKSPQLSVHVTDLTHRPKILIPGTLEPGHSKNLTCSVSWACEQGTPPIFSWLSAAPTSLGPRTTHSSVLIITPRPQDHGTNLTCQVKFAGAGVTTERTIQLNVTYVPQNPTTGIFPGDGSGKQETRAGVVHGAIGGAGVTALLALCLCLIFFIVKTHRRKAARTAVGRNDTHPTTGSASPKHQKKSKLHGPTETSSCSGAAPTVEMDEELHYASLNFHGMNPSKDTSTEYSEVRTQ
- assay overview: flow cytometry, human primary macrophages;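 further: binding of CD33 antibodies at 10 µg/ml to human primary macrophages, 1 h on ice, detected with PE-labelled secondary antibody by flow cytometry, reported as MFI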
For each entry below, report its Macrophage MFI value.

{"binder": "C-75 (antibody, V domains shown, human IgG1) VH: EVQLLESGGGLVQPGGSLRLSCAASGFTFSSYAMSWVRQAPGKGLEWVSAISASGGSTYYADSVKGRFTISRDNSKNTLYLQMNSLRAEDTAVYYCARLHMTGTASSGMDVWGQGTTVTVSS VL: DIVMTQSPDSLAVSLGERATINCKSSQSVLYSSNNKNYLAWYQQKPGQAPRLLIYGASSRATGIPDRFSGSGSGTDFTLTISRLEPEDFAVYYCQQDYSSPLTFGGGTKVEIK", "Macrophage MFI": 778}
{"binder": "C-35 (antibody, V domains shown, human IgG1) VH: QLQLQESGPGLVKPSETLSLTCTVSGGSISSSSYAWGWIRQPPGKGLEWIGNIYYSGSTYYNPSLKSRVTISVDTSKNQFSLKLSSVTAADTAVYYCARAGYRSPSGFDYWGQGTLVTVSS VL: DIQMTQSPSSVSASVGDRVTITCRASQGISSWLAWYQQKPGKAPKLLIYAASNLQSGVPSRFSGSGSGTDFTLTISSLQPEDFATYYCQQGNAHPTFGGGTKVEIK", "Macrophage MFI": 920}

Kindly consider the entry below.
Which Macrophage MFI reading was recorded for the binder C-88 (antibody, V domains shown, human IgG1) VH: QLQLQESGPGLVKPSETLSLTCTVSGGSISSSSYYWGWIRQPPGKGLEWIGSIYYSGSTYYNPSLKSRVTISVDTSKNQFSLKLSSVTAADTAVYYCARLPIYYDSSGYFDYHGMDVWGQGTTVTVSS VL: EIVLTQSPATLSLSPGERATLSCRASQSVSSYLAWYQQKPGQAPRLLIYDASNRATGIPARFSGSGSGTDFTLTISSLEPEDFAVYYCQQHANHPPTFGGGTKVEIK ? 1200
